Target chain: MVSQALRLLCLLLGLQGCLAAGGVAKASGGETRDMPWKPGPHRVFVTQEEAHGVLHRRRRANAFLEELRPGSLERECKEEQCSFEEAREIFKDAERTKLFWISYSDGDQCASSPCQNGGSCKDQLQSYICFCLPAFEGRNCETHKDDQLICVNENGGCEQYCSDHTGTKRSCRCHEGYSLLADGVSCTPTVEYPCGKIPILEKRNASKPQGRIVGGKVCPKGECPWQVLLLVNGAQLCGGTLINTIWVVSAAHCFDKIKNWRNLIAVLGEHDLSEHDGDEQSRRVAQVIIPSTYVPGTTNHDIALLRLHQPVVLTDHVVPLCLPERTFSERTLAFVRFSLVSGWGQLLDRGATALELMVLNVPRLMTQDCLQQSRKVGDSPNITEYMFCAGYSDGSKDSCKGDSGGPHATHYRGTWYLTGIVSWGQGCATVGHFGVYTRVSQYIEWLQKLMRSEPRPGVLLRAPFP
property: IC50 (µM)

Below, each entry is followed by its recorded IC50 result.
INSERT INTO measurements (smiles_notation, observed) VALUES
  ('CC[C@@H](C)NC(=O)c1cc(N)cc(-c2cnc(NC(C)C)c(=O)n2CC(=O)NCc2ccc(C(=N)N)cc2C(=O)NCC(=O)O)c1', 0.021),
  ('CC[C@@H](C)NC(=O)c1cc(N)cc(-c2cnc(NC(C)C)c(=O)n2CC(=O)NCc2ccc(C(=N)N)cc2C(=O)NCCN2CCOCC2)c1', 0.02),
  ('CC[C@@H](C)NC(=O)c1cc(N)cc(-c2cnc(NC(C)C)c(=O)n2CC(=O)NCc2ccc(C(=N)N)cc2C(=O)O)c1', 0.152);

(I) CC[C@@H](C)NC(=O)c1cc(N)cc(-c2cnc(NC(C)C)c(=O)n2CC(=O)NCc2ccc(C(=N)N)cc2C(=O)NCC(=O)OC)c1
(II) CC[C@@H](C)NC(=O)c1cc(N)cc(-c2cnc(NC(C)C)c(=O)n2CC(=O)NCc2ccc(C(=N)N)cc2)c1
Returns: the label, I or II , whose recorded IC50 is the lower number. Answer by quoting the chosen item's label.
II
(II: 0.0017 µM, I: 0.023 µM)

====

- assay.notes: Inhibitory concentration against Factor IIa
property: IC50 (µM)

INSERT INTO assay_data (smiles_notation, unit_of_measurement, observed) VALUES
  ('CC[C@@H](C)NC(=O)c1cc(N)cc(-c2cnc(NC(C)C)c(=O)n2CC(=O)NCc2ccc(C(=N)N)cc2C(=O)NCC(F)(F)F)c1', 'µM', 22.6),
  ('CC[C@@H](C)NC(=O)c1cc(N)cc(-c2cnc(NC(C)C)c(=O)n2CC(=O)NCc2ccc(C(=N)N)cc2C(=O)NCC(=O)OC)c1', 'µM', 26.7);
